In this section, each of the binders is paired with its reported Neutralization PSV IC50.
- TARGET_DESC: VP1 capsid protein on BKV pseudovirions of genotype IVc2 (A-66H; AB369093) (BK virus genotype IVc2 (A-66H))
- MEASUREMENT_DESCRIPTION: cell-based or functional assay

{"BINDER": "antibody C4P7 (antibody, V domains shown) VH: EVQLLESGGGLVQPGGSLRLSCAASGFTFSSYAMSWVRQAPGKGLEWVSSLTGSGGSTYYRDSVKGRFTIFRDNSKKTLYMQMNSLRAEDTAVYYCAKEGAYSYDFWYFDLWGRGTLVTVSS VL: EIVLTQSPGTLSLSPGERATLSCRASQTVSGNYLAWYQQKPGQSPSLLIYGASSRATGIPDRFTGSGSGTDFTLTISRLEPADFAVYYCQQYGRPLTFGGGTKVEIK", "Neutralization PSV IC50": "> 3.12 µg/mL"}
{"BINDER": "antibody E2P6 (antibody, V domains shown) VH: EVQLVESGGGLIQPGGSLRLSCAASGFTVSTNCMSWVRQAPGTGLEWVSVIYSGGTTYYADSVKGRFTISRDNSRNTLYLQMNGLRAEDTAVYYCARSVDTYDIYALDVWGQGTTVTVSS VL: DIQMTQSPSTLSASVGDRVTITCRASQSISRWLAWYQQKPGKAPKLLIYKASGLHSGAPSRFSGSGSGTEFTLTISGLQPDDFATYFCQQYNSYPWTFGQGTKVEIK", "Neutralization PSV IC50": "> 50 µg/mL"}
{"BINDER": "antibody B9P4 (antibody, V domains shown) VH: EVQLVESGGGVVQPGRSLRLSCAASGFTFSSYGMHWVRQAPGKGLEWVAVISKDGSNKYEADFVKGRFTISRDNSKNTLYLQMNSLRAEDTAVYYCAKIPLRRYSDSGDYSSGDFWGQGTLVTVSS VL: DVVMTQSPLSLTVTLGQPASISCRSSENLVYSDGNTYLSWFQQRPGQSPRRLIYKVSTRDSGVPDRFSGSGSGTDFTLKISRVEAEDVGVYYCMQTTHWPPLTFGGGTKVEIK", "Neutralization PSV IC50": "> 50 µg/mL"}
{"BINDER": "antibody C9P1 (antibody, V domains shown) VH: EVQLLESGGGLVQPGGSLRLSCVTSGFTFSSYSMTWVRQAPGKGLEWVSYISSSSRTISYADSVQGRFTISRDNAKNVLYLQMNSLRAEDTAVYYCARQAVAHFDYWGQGTLVTVSS VL: EIVLTQSPGTLSLSPGERATLSCRASQRVSSNYLAWYQQKPGQAPRLLIYGASSRATGIPDRFSGSGSGTDFTLTISRLEPEDFAVYYCQQYGTSPRSFGQGTKVEIK", "Neutralization PSV IC50": "> 50 µg/mL"}
{"BINDER": "antibody F4P5 (antibody, V domains shown) VH: EVQLVESGGGVVQPGRSLRLSCAASGFTFSNFGMHWVRQPPGKGLEWVAVISYDGSDKFYADSVKGRFTISRDNFKNTLYVQMNSLRAEDTAVYYCAKDRVRTKYYYDHSGPFDYWGRGTLVTVSS VL: SYELTQPPSVSVAPGQTARIACGGNNIGSKSVHWYQQRPGQAPVLVVYDDDDRPSGIPERFSGSNSGNTATLTISRVEAGDEADYFCQVWMTNSDRPVFGGGTKLTVL", "Neutralization PSV IC50": "15.9 µg/mL"}
